- experiment: Water solubility of drugs (saturation concentration by HPLC)
- Type: physicochemical
- test.context: 100 mM Tris-HCl (pH 7.5), 25° C., saturation concentration
Please enter True where Water solubility is greater than or equal to 1 g/100 ml, and False where it is lower.

Hi team, for COCCOCCOCCOCCOCCOCCOCCOCCOCCOCCOCCOCCC(=O)OCCOc1cc2c(cc1N)C(=O)N(c1c(C(C)C)cccc1C(C)C)C2=O [PEG11(E)-TC11] , is the recorded Water solubility at or above 1 g/100 ml? True

Tell me whether Water solubility is at least 1 g/100 ml here: CC(C)c1cccc(C(C)C)c1N1C(=O)c2cc(N)c(OCCO[C@@H]3OC(CO)[C@@H](O)[C@H](O)C3O)cc2C1=O (stereo partly drawn) [Glu-TC11] False

Is it the case that COCCOCCOCCOCCOCCOCCOCCOCCOCCOCCOCCOCCOc1cc2c(cc1N)C(=O)N(c1c(C(C)C)cccc1C(C)C)C2=O [PEG11(O)-TC11] has Water solubility reaching or exceeding 1 g/100 ml? True

Hi team, for CC(C)c1cccc(C(C)C)c1N1C(=O)c2ccc(N)cc2C1=O [TC11, reference compound] , is the recorded Water solubility at or above 1 g/100 ml? False

// inclusive: Water solubility at least 1 g/100 ml? input: COCCOCCOCCOCCOCCC(=O)OCCOc1cc2c(cc1N)C(=O)N(c1c(C(C)C)cccc1C(C)C)C2=O [PEG5(E)-TC11] False

Hi, just wondering whether CC(C)c1cccc(C(C)C)c1N1C(=O)c2cc(N)c(OCCO)cc2C1=O [HOEtO-TC11, hydroxyethoxy-TC11] shows Water solubility of 1 g/100 ml or higher. False

Hello, the source for this data is patent US20190315775A1, in case you need it.
